system: T1, human IGF2^1-67 (mature insulin-like growth factor 2) (human, UniProt P01344 25-91, biotinylated (site not stated) where immobilised on the chip (Tables 1-4))
T1 construct: mature; also called mature IGF2; biotinylated IGF2
T1 sequence (P01344 25-91): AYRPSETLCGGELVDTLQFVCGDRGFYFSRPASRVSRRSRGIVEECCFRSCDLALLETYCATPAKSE
assay-overview: SPR kinetic, biotin-IGF2 on chip, pH 7.4
property-measured: koff

# count of solved cases: 4
Item domain 11^AB5 P1599V (receptor, See m5; the asterisk is not explained) MKSNEHDDCQVTNPSTGHLFDLSSLSGRAGFTAAYAKGWGVYMSICGENENCPPGVGACFGQTRISVGKANKRLRYVDQVLQLVYKDGSPCVSKSGLSYKSVISFVCRPEAGPTNRPMLISLDKQTCTLFFSWHTPLACEQATECSV has what recorded koff?
> 0.1 s⁻¹

Next binder: domain 11^AB5 P1599G (receptor, See m5; the asterisk is not explained) MKSNEHDDCQVTNPSTGHLFDLSSLSGRAGFTAAYAKGWGVYMSICGENENCPPGVGACFGQTRISVGKANKRLRYVDQVLQLVYKDGSPCGSKSGLSYKSVISFVCRPEAGPTNRPMLISLDKQTCTLFFSWHTPLACEQATECSV
> 0.2 s⁻¹

Next binder: domain 11^AB5 S1600L (receptor, See m5) MKSNEHDDCQVTNPSTGHLFDLSSLSGRAGFTAAYAKGWGVYMSICGENENCPPGVGACFGQTRISVGKANKRLRYVDQVLQLVYKDGSPCPLKSGLSYKSVISFVCRPEAGPTNRPMLISLDKQTCTLFFSWHTPLACEQATECSV
> 0.2 s⁻¹

Next binder: domain 11^AB5 P1599A (receptor, See m5; the asterisk is not explained) MKSNEHDDCQVTNPSTGHLFDLSSLSGRAGFTAAYAKGWGVYMSICGENENCPPGVGACFGQTRISVGKANKRLRYVDQVLQLVYKDGSPCASKSGLSYKSVISFVCRPEAGPTNRPMLISLDKQTCTLFFSWHTPLACEQATECSV
> 0.1 s⁻¹

More entries:
Item domain 11^AB5 S1600V (receptor, See m5) MKSNEHDDCQVTNPSTGHLFDLSSLSGRAGFTAAYAKGWGVYMSICGENENCPPGVGACFGQTRISVGKANKRLRYVDQVLQLVYKDGSPCPVKSGLSYKSVISFVCRPEAGPTNRPMLISLDKQTCTLFFSWHTPLACEQATECSV has what recorded koff?
> 0.2 s⁻¹
